# ASSAY: chemical genetic growth profiling, strain panel (AID 1159580);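 note: tested at 20 µM; growth read once vehicle control cultures reached saturation at 30 °C; 1 = growth at the plate median or of vehicle wells; lower values mean less growth of the strain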
# ASSAY_CONTEXT: S. cerevisiae deletion strains, growth OD, locus YML032C, strain rad52
Hit rate of the full screen: of about 5,500 compounds, about 2,000 (36%) were called active. Roughly 18% stayed inconclusive and do not appear here. Cut-off read from the data, not from the text of the source: active = normalized growth mostly below about 0.91 (no sharp cut-off); inconclusive = no clear call, values can overlap the other calls; inactive = mostly above about 0.92. The list shows a part of the results.
Reply using exactly one outcome from TRUE = active, FALSE = inactive

CC1(C)C(C(Cl)Cl)C2(Cl)C(Cl)C(Cl)C1(Cl)C2(Cl)Cl (stereo unspecified)
FALSE
COc1cc(OC)c2c(=O)c(-c3ccccc3)c(C)oc2c1OC
FALSE
NC[C@H](O)c1ccc(O)c(O)c1
FALSE
CC(=O)Oc1ccc(Cl)c2cccnc12
TRUE
COC(C)(C)CCC[C@H](C)C/C=C/C(C)=C/C(=O)OC(C)C
FALSE

-- ask Identify the outcome logged in this assay for the compound shown: CCC(Cc1c(I)cc(I)c(N)c1I)C(=O)O (stereo unspecified)
-- reply FALSE

-- ask Identify the outcome logged in this assay for the compound shown: CC(=O)O[C@H]1C[C@@H](OC(C)=O)C(C)(C)C2C[C@@H](OC(C)=O)[C@@]3(C)C4=CC(=O)O[C@@H](c5ccoc5)[C@]4(C)CCC3[C@]21C (stereo partly specified)
-- reply FALSE

====

For each of the compounds below, state its normalized growth.
# ASSAY: chemical genetic growth profiling, strain panel (AID 1159580)
# ASSAY_CONTEXT: S. cerevisiae deletion strains, growth OD, locus YPR111W, strain DBF20, hits give low values
Among all 5,500 compounds or so, about 2,000 (36%) were called active. Roughly 18% stayed inconclusive and do not appear here. This is one part of the list.
Numbers only.

Examples with their reported normalized growth follow.
CCCc1c(C(=O)Sc2ccccn2)cnn1-c1ccc(Cl)cc1
0.937
CSc1ccc(/C=C(\C)[N+](=O)[O-])cc1
0.188
Cc1nn(Cc2ccc(C(=O)Sc3ccc(C(F)(F)F)cn3)o2)c(C)c1Br
0.93
COc1ccc(C(=O)CSC2=NCCc3ccccc32)cc1
0.97
Cc1c2c(=O)[nH]ncc2c(-c2ccccc2)n1-c1ccc([N+](=O)[O-])cc1
1

# batch size: 4; output normalized growth per entry
1. OC(CNCc1ccc(Cl)cc1)CO/N=C\C1=C(Cl)c2cc(Cl)ccc2OC1 (stereo unspecified)
2. CCCc1c(C(=O)NNc2cccc(Cl)c2)cnn1-c1ccccc1
3. O=S(=O)(N/N=C\c1ccc(Cl)cc1)c1ccc(-c2ccccn2)s1
4. O=[N+]([O-])/C=C/c1ccc(F)cc1

-- reply
1. 0.962
2. 0.965
3. 0.967
4. 0.0892

# batch size: 2; output normalized growth per entry
1. C/C(=C\c1ccc2c(c1)OCO2)[N+](=O)[O-]
2. CCOC(=O)C1=C(N)OC2=C(C(=O)CC(C)(C)C2)C1c1ccc(Cl)cc1Cl (stereo unspecified)

-- reply
1. 0.142
2. 0.964

====

# ASSAY: chemical genetic growth profiling, strain panel (AID 1159580)
# ASSAY_CONTEXT: S. cerevisiae deletion strains, growth OD, locus YLL026W, hits give low values
Among all 5,500 compounds or so, about 2,000 (36%) were called active. About 18% were inconclusive and are not listed. This is one part of the list.
// NB: equality with 1 counts as Not satisfied; only normalized growth strictly below is Satisfied

Would you please look over these solved cases?
CN(C)CCOc1ccc(/C(=C(/CCCl)c2ccccc2)c2ccccc2)cc1
Satisfied
CO[C@H]1/C=C/O[C@@]2(C)Oc3c(C)c(O)c4c(O)c(c5c(nc6cc(C)ccn65)c4c3C2=O)NC(=O)/C(C)=C\C=C\[C@H](C)[C@H](O)[C@@H](C)C(O)[C@@H](C)[C@H](OC(C)=O)[C@@H]1C (stereo not given in full)
Not satisfied
C=C[C@@H](C1=CC(=O)C(OC)=C(OC)C1=O)c1ccccc1
Satisfied

Let's switch to this molecule now.
-- ask Does this molecule meet the criterion normalized growth < 1? CCOC(=O)c1oc2c(OC)c(O)cc(O)c2c(=O)c1-c1cc(OC)c(OC)c(OC)c1
-- reply Satisfied

====

# ASSAY: chemical genetic growth profiling, strain panel (AID 1159580);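 note: tested at 20 µM; growth read once vehicle control cultures reached saturation at 30 °C; 1 = growth at the plate median or of vehicle wells; lower values mean less growth of the strain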
# ASSAY_CONTEXT: S. cerevisiae deletion strains, growth OD, locus YJL166W, strain qcr8, hits give low values
Screen size: about 5,500 compounds; about 2,000 (36%) were called active. Roughly 18% stayed inconclusive and do not appear here. This is one part of the list.
For each of the molecules below, state its normalized growth.
Answers are plain numbers.

# batch size: 3; output normalized growth per entry
1. Nc1ccc(S(=O)(=O)Nc2ccccn2)cc1
2. CC(=O)c1c(O)c(C)c(O)c2c1OC1=CC(=O)C(C(C)=O)C(=O)C12C (centres undefined)
3. CC(C)NCC(O)c1ccc(O)c(O)c1 (centres undefined)

-- reply
[1.02, 0.913, 0.972]

====

# ASSAY: chemical genetic growth profiling, strain panel (AID 1159580);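 note: tested at 20 µM; growth read once vehicle control cultures reached saturation at 30 °C; 1 = growth at the plate median or of vehicle wells; lower values mean less growth of the strain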
# ASSAY_CONTEXT: S. cerevisiae deletion strains, growth OD, locus YPR167C, strain met16, hits give low values
Screen size: about 5,500 compounds; about 2,000 (36%) were called active. About 18% were inconclusive and are not listed. Some of the results follow.
ENDPOINT: normalized growth

COc1ccc(C(Cl)=C(c2ccc(OC)cc2)c2ccc(OC)cc2)cc1
1.02 (inactive)

# batch size: 8; output normalized growth per entry
1. Oc1ccc(Cl)c2cccnc12
2. CCN(CC)CCOc1ccc(/C(=C(\Cl)c2ccccc2)c2ccccc2)cc1
3. O[N+]1=CC=CCC1=S.On1ccccc1=S.[Zn]
4. Cc1ccc2cc3c(ccc4ccccc43)c3c2c1CC3
5. O=C1C=CC2=C3c4cc(O)c(O)cc4CC3(O)COC2=C1O (stereo not given)
6. CCN(CC)CCOc1ccc2c(c1)C(=O)c1cc(OCCN(CC)CC)ccc1-2
7. NCCNC(=O)c1ccc(Cl)cc1
8. COc1cc(C(=O)NCc2ccc(OCCN(C)C)cc2)cc(OC)c1OC

-- reply
0.0645 (active)
0.0645 (active)
0.0637 (active)
0.968 (inactive)
1.04 (inactive)
1 (inactive)
0.973 (inactive)
0.994 (inactive)

# batch size: 8; output normalized growth per entry
1. O=[N+]([O-])c1cc(O)c(O)c([N+](=O)[O-])c1
2. CC(=O)O[C@@H]1CC2C(C)(C)C(=O)CC[C@]2(C)C2CC[C@]3(C)C(=CC(=O)O[C@H]3c3ccoc3)[C@@]21C (stereo not given in full)
3. C=CCC1(C(C)CCC)C(=O)N=C(S)NC1=O (stereo not given)
4. Oc1c(Cl)cc(Cl)c2cccnc12
5. C[C@H](N)[C@H](O)c1ccc(O)c(O)c1
6. Nc1ccc(C(=O)NCC(=O)O)cc1
7. CN/C(=C\[N+](=O)[O-])NCCSCc1ccc(CN(C)C)o1
8. CN(C)CCOC(C)(c1ccccc1)c1ccccn1 (stereo not given)

-- reply
0.971 (inactive)
0.992 (inactive)
0.981 (inactive)
0.0659 (active)
0.993 (inactive)
1.02 (inactive)
0.98 (inactive)
0.98 (inactive)

# batch size: 2; output normalized growth per entry
1. CCCc1occc(=O)c1/C=C/O
2. NCC(CC(=O)O)c1ccc(Cl)s1 (stereo not given)

-- reply
["0.958 (inactive)", "0.99 (inactive)"]

# batch size: 6; output normalized growth per entry
1. CCCC(C)C1(CC)C(=O)NC(=O)NC1=O (stereo not given)
2. O=C(O)/C=C/C=C/c1ccccc1
3. O=C(O[C@@H]1Cc2c(O)cc(O)cc2O[C@@H]1c1cc(O)c(O)c(O)c1-c1c([C@H]2Oc3cc(O)cc(O)c3C[C@H]2O)cc(O)c(O)c1O)c1cc(O)c(O)c(O)c1
4. Cc1occc(=O)c1/C=C/O
5. N[C@@H](Cc1ccc(O)c(O)c1)C(=O)O
6. c1ccc2c(c1)cc1ccc3cccc4ccc2c1c34

-- reply
1.02 (inactive)
0.926 (inactive)
0.785 (active)
1.02 (inactive)
1.01 (inactive)
1 (inactive)

====

# ASSAY: chemical genetic growth profiling, strain panel (AID 1159580);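 note: tested at 20 µM; growth read once vehicle control cultures reached saturation at 30 °C; 1 = growth at the plate median or of vehicle wells; lower values mean less growth of the strain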
# ASSAY_CONTEXT: S. cerevisiae deletion strains, growth OD, locus YLR039C, strain RIC1, hits give low values
In all, about 5,500 compounds went through this assay and about 2,000 (36%) were called active. About 18% were inconclusive and are not listed. The list shows a part of the results.
// NB: equality with 0.9 counts as Condition not met; only normalized growth strictly below is Condition met

Would you please look over these solved cases?
O=C1OC2COC(=O)C2C=C1NC(=O)c1ccc(Cl)cc1 (stereo unspecified)
Condition met
COc1cc(OC)c2c(=O)c(-c3ccccc3)c(C)oc2c1OC
Condition not met
O=[N+]([O-])c1ccc(SC2=NCCN2)c(Cl)c1
Condition not met
CC(=O)Nc1cc([As](=O)(O)O)ccc1O
Condition not met
O=C(O)CF
Condition not met
C[C@H](N)[C@H](O)c1ccc(O)c(O)c1
Condition not met
CC(=O)c1sc(SCc2ccc(Cl)cc2)c2c1CC(C)(C)CC2=O
Condition not met
Nc1ccc(S(=O)(=O)Nc2ccc(Cl)nn2)cc1
Condition not met

-- ask Does this compound meet the criterion normalized growth < 0.9? NC(N)=NC(N)=Nc1cc(C(F)(F)F)cc(C(F)(F)F)c1
-- reply Condition not met

-- ask Does this compound meet the criterion normalized growth < 0.9? CCOC(=O)N/N=C\c1cccs1
-- reply Condition not met

-- ask Does this compound meet the criterion normalized growth < 0.9? C=C[C@@H](C1=CC(=O)C(OC)=C(OC)C1=O)c1ccccc1
-- reply Condition met
